- System: DU-145
- assay: NCI tumour cell line growth inhibition, 48 h
Structures can show the parent of a compound that is named as a salt. Activity calls are given as the source filed them. No stated cut-off is given here; in the data, active = GI50 up to about 1.1 µM and inactive = higher.
Outcomes: TRUE (active), FALSE (inactive)

INSERT INTO results (molecule, class_label) VALUES
  ('Cc1ccc(S(=O)(=O)N/N=C2\C=CC3(CC2)C(=O)N(I)c2ccccc23)cc1 (configuration not stated)', 'FALSE'),
  ('COc1cccc2c(=O)oc(-c3ccccc3C)nc12', 'FALSE'),
  ('CCc1cc(-c2nsc(=O)o2)c(S(=O)(=O)CC)s1', 'FALSE'),
  ('FC(F)(F)c1ccc2nc3n(c2c1)C(c1c(Cl)cccc1Cl)SC3 (configuration not stated)', 'FALSE'),
  ('COc1cc2c(c(OC)c1OC)C(=O)[C@@H](O)[C@H]2NC(N)=O', 'FALSE'),
  ('CN(C)S(=O)(=O)/N=C/c1cccc(/C=N/S(=O)(=O)N(C)C)c1', 'FALSE'),
  ('CN(C)c1ccc(/C=c2/c3ccccc3n3c2cc(C24CC5CC(CC(C5)C2)C4)[n+]3C)cc1', 'TRUE'),
  ('CC(C)(C)C1(O)C=C(O)C(=O)N1NC(=O)c1ccccc1Nc1ccccc1 (configuration not stated)', 'FALSE'),
  ('CSc1ncc2c(C#N)c3ccccn3c(=O)c2n1', 'FALSE'),
  ('O=C(c1cc2c(c3ccccc13)NC1(CCCCC1)N=C2C(F)(F)F)C(F)(F)F', 'FALSE'),
  ('O=C1CCC2SC1CCC2=O', 'FALSE'),
  ('CC(C)c1cc(C(C)C)c(B(c2ccccc2)c2ccccc2)c(C(C)C)c1Br', 'FALSE'),
  ('COC(=O)c1cc(C#N)[nH]c1-c1ccc(C)s1', 'FALSE'),
  ('O=C1C=C(c2c(-c3ccccc3)[nH]c3ccccc23)C(=O)N1c1ccccc1', 'FALSE'),
  ('O=c1[nH]c(Cc2ccccc2)nc2c1sc1nc3ccccc3n12', 'FALSE'),
  ('COc1ccc(/N=C\c2ccc(N(CCC#N)CCC#N)cc2)cc1', 'FALSE'),
  ('CCOC(=O)C1C(O)CC2c3ccccc3-c3ccccc3C21 (configuration not stated)', 'FALSE'),
  ('O=C1c2cccnc2-c2nccc3c2c1nc1ccc(Br)cc13', 'TRUE'),
  ('CN(/N=C(\C(=O)O)c1ccccc1)C1=NCCCN1', 'FALSE'),
  ('CN(C)CCC=C1c2ccccc2C=Cc2ccccc21 [CYCLOBENZAPRINE HYDROCHLORIDE]', 'FALSE'),
  ('COc1ccc(-c2c(-c3ccc(OC)cc3)n3c(=O)n(C)c(=O)n23)cc1', 'FALSE'),
  ('O=C(NNC(=O)c1csc(NC(=S)NC2CCCCC2)n1)c1ccccc1', 'FALSE');
